Source: paper PMC9927415

experiment: Host cell cytotoxicity assay (CellTiter-Glo); details: human
readout_kind: CC50 at 48 h (µM)
The answer is to be given in µM; state only the numeric part.

Query string: Given the compound Cc1ccc(O)cc1Nc1ccnc2ccc(S(C)(=O)=O)cc12 [Compound 5] , what is its reported CC50 at 48 h?
Result string: 15.8

---

Can you tell me inhibition at 10 µM for the items I'm about to list?
target: panel of 203 kinases (Homo sapiens, UniProt P35916); construct: purchased DiscoverX (KINOMEscan); experiment: KINOMEscan competitive binding, whole panel; settings: 10 µM, n=1; kinase FLT4; read-out: Percent inhibition FLT4
Sequence (P35916 25-1363): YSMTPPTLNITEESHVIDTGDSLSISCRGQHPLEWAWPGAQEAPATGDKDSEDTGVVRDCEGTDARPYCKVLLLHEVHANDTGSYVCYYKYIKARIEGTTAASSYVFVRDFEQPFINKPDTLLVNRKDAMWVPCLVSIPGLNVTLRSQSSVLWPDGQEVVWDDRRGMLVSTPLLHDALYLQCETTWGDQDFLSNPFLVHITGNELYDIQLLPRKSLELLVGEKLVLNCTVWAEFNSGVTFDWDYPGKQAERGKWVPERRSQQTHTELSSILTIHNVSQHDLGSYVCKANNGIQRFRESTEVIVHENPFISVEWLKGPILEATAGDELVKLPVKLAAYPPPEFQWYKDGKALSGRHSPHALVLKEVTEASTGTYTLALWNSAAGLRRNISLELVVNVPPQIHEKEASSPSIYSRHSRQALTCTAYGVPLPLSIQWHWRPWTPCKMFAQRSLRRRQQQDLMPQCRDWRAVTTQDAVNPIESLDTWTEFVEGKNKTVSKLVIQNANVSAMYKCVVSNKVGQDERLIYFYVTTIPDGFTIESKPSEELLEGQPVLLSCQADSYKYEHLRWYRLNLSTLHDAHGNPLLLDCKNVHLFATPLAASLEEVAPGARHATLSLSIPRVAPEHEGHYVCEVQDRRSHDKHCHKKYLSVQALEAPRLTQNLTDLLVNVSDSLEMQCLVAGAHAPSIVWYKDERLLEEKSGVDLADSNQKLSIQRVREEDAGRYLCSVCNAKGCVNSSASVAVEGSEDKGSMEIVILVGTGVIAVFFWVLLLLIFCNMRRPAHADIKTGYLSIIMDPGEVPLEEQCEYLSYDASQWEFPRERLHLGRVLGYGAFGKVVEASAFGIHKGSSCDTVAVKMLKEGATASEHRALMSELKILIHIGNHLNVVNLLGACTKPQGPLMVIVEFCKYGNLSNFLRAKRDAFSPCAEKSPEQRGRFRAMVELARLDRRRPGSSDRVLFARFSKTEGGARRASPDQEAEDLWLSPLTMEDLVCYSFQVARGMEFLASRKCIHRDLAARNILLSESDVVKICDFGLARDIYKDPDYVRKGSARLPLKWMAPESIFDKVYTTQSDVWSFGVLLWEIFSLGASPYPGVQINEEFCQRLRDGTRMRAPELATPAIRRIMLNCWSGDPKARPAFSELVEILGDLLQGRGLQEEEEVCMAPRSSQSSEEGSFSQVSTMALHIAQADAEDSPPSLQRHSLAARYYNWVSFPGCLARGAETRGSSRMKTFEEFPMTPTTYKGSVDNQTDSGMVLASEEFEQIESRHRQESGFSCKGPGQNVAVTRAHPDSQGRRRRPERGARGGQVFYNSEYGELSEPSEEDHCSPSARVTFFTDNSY
The answer is to be given in %; state only the numeric part.

Query string: Given the molecule COc1ccc(Nc2nccc(-c3cnn4ncccc34)n2)cc1 , what is its reported inhibition at 10 µM?
Result string: 70.1

Query string: Given the molecule Cc1ccc(O)cc1Nc1ccnc(Nc2cccc(C(N)=O)c2)n1 , what is its reported inhibition at 10 µM?
Result string: 99.2

Query string: Given the molecule CN1CCN(c2ccc(Nc3nccc(-c4cnn5ncccc45)n3)cc2C#N)CC1 , what is its reported inhibition at 10 µM?
Result string: 71.9

Query string: Given the molecule COc1cc(Nc2nccc(-c3sc(N)nc3-c3cccc(NC(=O)c4c(F)cccc4F)c3)n2)cc(OC)c1OC , what is its reported inhibition at 10 µM?
Result string: 100

Query string: Given the molecule C[C@@H](Oc1cc(-c2cnc3ccccn23)sc1C(N)=O)c1ccccc1Cl , what is its reported inhibition at 10 µM?
Result string: 84

Query string: Given the molecule Cc1ccc(O)cc1N(C)c1ccnc(Nc2cccc(S(N)(=O)=O)c2)n1 , what is its reported inhibition at 10 µM?
Result string: 99.7

Query string: Given the molecule Nc1ncc2c(-c3ccncc3)c[nH]c2n1 , what is its reported inhibition at 10 µM?
Result string: 0

Query string: Given the molecule c1ccc(COc2cccc(-c3ccnc4[nH]ccc34)c2)cc1 , what is its reported inhibition at 10 µM?
Result string: 0

Query string: Given the molecule Clc1ccc(Nc2ncc(-c3ccccc3)s2)cc1 , what is its reported inhibition at 10 µM?
Result string: 0

Query string: Given the molecule Fc1cccc(COc2ccc(Nc3ncnc4c3CN(CCN3CCOCC3)CC4)cc2Cl)c1 , what is its reported inhibition at 10 µM?
Result string: 0
